// data source = ChEMBL document CHEMBL3988442

biological target: AMP-activated protein kinase, AMPK (Homo sapiens) (UniProt P54646+O43741+P54619+Q9UGJ0+Q9Y478+Q13131+Q9UGI9); test: AMP-dependent Kinase enzyme assay. An in vitro enzyme assay that detects ADP turnover that is directly proportional to AMPK activity. This uses naive AMPK that is activated during the assay with MK-8722; format: functional; design: scale not given: direction of the effect not stated beside the values; conditions: 30 µM
Measured Percent Effect of individual entries
Express your answer in %, writing the number without its unit.

| compound | Percent Effect (%) |
| --- | --- |
| CC(C)N1CCC(CNCc2c[nH]nc2C(C)(C)C)C1 (centres undefined) | -3.65 |
| CN(CCC#N)C(=O)CN1CCCC1c1ccsc1 (centres undefined) | -7.58 |
| CC(C)CNC(=O)c1c(-n2cnnn2)sc2c1CCC2 | 3.3 |

Then this compound:
// query Look at this compound and give its reported Percent Effect. NC(=O)N1CCC2(CC1)CN(c1ccsc1)C(=O)CO2
// result 4.87

* * *

Measured Percent Effect of individual entries
organism: Homo sapiens; experiment: To identify inhibition of the IFN signalling (Jak-Stat) pathway via expression of an eGFP reporter gene under the control of an IFN-stimulated response element (ISRE) containing MxA promoter.; assay type: functional; design: scale not given: direction of the effect not stated beside the values; conditions: 30 µM
Express your answer in %, writing the number without its unit.

Below, 6 compounds whose answers are already recorded.
| compound | units_symbol | Percent Effect |
| --- | --- | --- |
| O=C(c1ccco1)N1C[C@H]2CCCN(CC3CCOCC3)[C@H]2C1 | % | 1.5 |
| COc1c(C2CCCN2Cc2c(C)noc2C)c(C)nn1C (stereo unspecified) | % | -12.5 |
| Cc1cc(CNc2ccc(C(=O)N3CCCC(C)C3)cc2C)no1 (stereo unspecified) | % | 37.9 |
| CC(=O)N1CCC2(CCCN(Cc3ccc(Cl)c(C(F)(F)F)c3)C2)C1 (stereo unspecified) | % | -5.5 |
| COCc1nc(C(=O)NS(=O)(=O)c2ccc(C)cc2C)cs1 | % | -17.6 |
| Cc1cccc(CCC(=O)N2CCOCC2c2c(C)n[nH]c2C)c1 (stereo unspecified) | % | 9.04 |

// query Look at this compound and give its reported Percent Effect. O=C(Cc1ccccc1)N1CCC2(CC(=O)N(c3ccsc3)C2)C1 (stereo unspecified)
// result -6.08

// query Look at this compound and give its reported Percent Effect. CCN1CCN(c2ccc(CNC(=O)c3c(C)noc3C)cn2)CC1
// result 1.82

// query Look at this compound and give its reported Percent Effect. CCNc1cc2c(nn1)CCN(C(=O)c1cccc3c1OCCO3)C2
// result 1.1

// query Look at this compound and give its reported Percent Effect. COCC1c2nnn(CC3CC3)c2CCN1C(=O)c1ccnnc1 (stereo unspecified)
// result -2.31

// query Look at this compound and give its reported Percent Effect. Cn1cc(CN2CCC3(CCCN3S(C)(=O)=O)CC2)cn1
// result 1.96

// query Look at this compound and give its reported Percent Effect. Cc1noc(C)c1CN1CCc2nn(C(C)C)c(=O)cc2C1
// result -9.45

// query Look at this compound and give its reported Percent Effect. O=C1CC(c2ccccc2)c2c(n3ccsc3nc2=O)N1 (stereo unspecified)
// result 5.81

// query Look at this compound and give its reported Percent Effect. Cn1cc(N2CC3(COCCN(Cc4ccsc4)C3)OCC2=O)cn1 (stereo unspecified)
// result 6.9

// query Look at this compound and give its reported Percent Effect. CCC1CN(CCNC(C)=O)CCN1CCOC (stereo unspecified)
// result 5.73

// query Look at this compound and give its reported Percent Effect. Cn1ccc(C(=O)N2CCN(CCc3ccccc3)CC2)cc1=O
// result 6.37
